Target: T1, cynomolgus (Macaca fascicularis) ST2L extracellular domain with C-terminal His6 tag (Macaca fascicularis (cynomolgus), UniProt Q01638 19-321 (human entry))
T1 construct: also called cyno ST2L-ECD; cynoST2L-ECD
T1 chain: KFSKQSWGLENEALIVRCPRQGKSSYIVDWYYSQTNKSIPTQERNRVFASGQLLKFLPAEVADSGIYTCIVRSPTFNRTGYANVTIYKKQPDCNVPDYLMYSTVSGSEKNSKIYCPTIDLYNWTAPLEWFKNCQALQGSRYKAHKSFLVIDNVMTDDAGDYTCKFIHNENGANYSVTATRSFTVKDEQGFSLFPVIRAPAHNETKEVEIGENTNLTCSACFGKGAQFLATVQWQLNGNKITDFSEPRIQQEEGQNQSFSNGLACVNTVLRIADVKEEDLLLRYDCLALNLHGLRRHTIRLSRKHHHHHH
Assay: SPR, mAb captured, ST2L-ECD in solution
Note to self: Kd under 0.005 nM means T, ties and anything higher get F.

Field: example entries. Status: answers known.
| BINDER | CATEGORY |
| --- | --- |
| STLM216 (antibody, V domains shown, frameworks VH3-23 / Vk-L6) VH: EVQLLESGGGLVQPGGSLRLSCAASGFTFSSYDMFWVRQAPGKGLEWVSDIKGEGGATNYADSVKGRFTISRDNSKNTLYLQMNSLRAEDTAVYYCARDPWSTEGSFFVLDYWGQGTLVTVSS VL: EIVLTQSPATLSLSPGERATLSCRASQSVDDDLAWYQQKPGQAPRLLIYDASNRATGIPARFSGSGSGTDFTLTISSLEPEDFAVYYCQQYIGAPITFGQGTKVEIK | T |
| STLM210 (antibody, V domains shown, frameworks VH3-23 / Vk-L6) VH: EVQLLESGGGLVQPGGSLRLSCAASGFTFSDDAMIWVRQAPGKGLEWVSYIGGNGGTTYYADSVKGRFTISRDNSKNTLYLQMNSLRAEDTAVYYCARDPWSTEGSFFVLDYWGQGTLVTVSS VL: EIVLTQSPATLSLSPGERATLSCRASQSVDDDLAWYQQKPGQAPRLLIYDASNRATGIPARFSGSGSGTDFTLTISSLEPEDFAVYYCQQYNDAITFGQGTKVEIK | F |
| STLM214 (antibody, V domains shown, frameworks VH3-23 / Vk-L6) VH: EVQLLESGGGLVQPGGSLRLSCAASGFTFSSYDMFWVRQAPGKGLEWVSDIKGEGGRTAYADSVKGRFTISRDNSKNTLYLQMNSLRAEDTAVYYCARDPWSTEGSFFVLDYWGQGTLVTVSS VL: EIVLTQSPATLSLSPGERATLSCRASQSVDDDLAWYQQKPGQAPRLLIYDASNRATGIPARFSGSGSGTDFTLTISSLEPEDFAVYYCQQYIDAPLTFGQGTKVEIK | F |
| STLM227 (antibody, V domains shown, VH STLH201 + VL STLL277) VH: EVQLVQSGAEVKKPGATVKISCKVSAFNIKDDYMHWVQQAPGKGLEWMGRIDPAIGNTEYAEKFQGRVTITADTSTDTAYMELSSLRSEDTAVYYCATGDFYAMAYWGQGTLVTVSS VL: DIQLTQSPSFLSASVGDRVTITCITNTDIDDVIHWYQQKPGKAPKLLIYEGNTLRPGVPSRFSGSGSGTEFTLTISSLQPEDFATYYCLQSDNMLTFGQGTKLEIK | F |
| STLM218 (antibody, V domains shown, frameworks VH3-23 / Vk-L6) VH: EVQLLESGGGLVQPGGSLRLSCAASGFTFSVDSMFWVRQAPGKGLEWVSSIEGNGGATYYADSVKGRFTISRDNSKNTLYLQMNSLRAEDTAVYYCARDPWSTEGSFFVLDYWGQGTLVTVSS VL: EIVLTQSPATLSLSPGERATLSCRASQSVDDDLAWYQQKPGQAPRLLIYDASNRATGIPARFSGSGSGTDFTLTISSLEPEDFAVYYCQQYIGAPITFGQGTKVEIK | F |

Lookup: State whether 0.005 nM exceeds Kd recorded for STLM217 (antibody, V domains shown, frameworks VH3-23 / Vk-L6) VH: EVQLLESGGGLVQPGGSLRLSCAASGFTFSVYDMFWVRQAPGKGLEWVSDIKGEGGETSYADSVKGRFTISRDNSKNTLYLQMNSLRAEDTAVYYCARDPWSTEGSFFVLDYWGQGTLVTVSS VL: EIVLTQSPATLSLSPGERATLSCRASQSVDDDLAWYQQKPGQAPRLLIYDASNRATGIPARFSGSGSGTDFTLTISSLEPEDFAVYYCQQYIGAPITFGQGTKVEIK .
Found: T

Lookup: // next record STLM228 (antibody, V domains shown, VH STLH201 + VL STLL276) VH: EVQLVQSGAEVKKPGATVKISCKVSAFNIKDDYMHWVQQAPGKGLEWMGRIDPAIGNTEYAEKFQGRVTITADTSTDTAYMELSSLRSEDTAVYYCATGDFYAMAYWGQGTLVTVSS VL: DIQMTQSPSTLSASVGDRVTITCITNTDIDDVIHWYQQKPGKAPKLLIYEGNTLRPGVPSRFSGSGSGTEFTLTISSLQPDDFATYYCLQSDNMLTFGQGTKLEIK
Found: F

Lookup: // next record STLM230 (antibody, V domains shown, VH STLH201 + VL STLL274) VH: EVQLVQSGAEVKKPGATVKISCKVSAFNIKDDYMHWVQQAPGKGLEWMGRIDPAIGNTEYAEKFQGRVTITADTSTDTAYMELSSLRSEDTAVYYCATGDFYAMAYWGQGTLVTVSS VL: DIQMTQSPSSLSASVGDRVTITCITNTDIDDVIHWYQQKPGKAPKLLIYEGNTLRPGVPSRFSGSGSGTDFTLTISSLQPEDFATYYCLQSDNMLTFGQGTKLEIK
Found: F
